# targetOfAssay: HLA-B*3501 (human)
# protocolDetails: inhibition of 125I-B35con2 probe, purified HLA
# statedConditions: remark: other sources report otherwise
testReadout: IC50
Answer by giving the amount and then stating its unit.

Lab book: IC50 of APAPAPSW [p53.84 APAPAPSW] noted as 32.7 nM

Value source: patent US20060094649A1
